FYI, the data here is from patent US9133207B2.

- Tested on: H9 (acute lymphoblastic leukemia, ALL)
- test-details: Leukemia cell growth inhibition, MTT, 72 h (Example 5)
- Assay type: cell-based, human
- study-conditions: Homo sapiens; 72 h, MTT
experimental-readout: IC90 (µg/mL)

Guide cases for IC90, answers given:
[[record]]
compound = "COc1ccc2cc1Oc1ccc(cc1)C[C@H]1c3cc(c(OC)cc3CCN1C)Oc1c(OC)c(OC)c(CN3CCN(C)CC3)c3c1[C@H](C2)N(C)CC3"
numeric_result = 1.71

[[record]]
compound = "COc1ccc2cc1Oc1ccc(cc1)C[C@H]1c3cc(c(OC)cc3CCN1C)Oc1c(OC)c(OC)c(CN3CCCC(CO)C3)c3c1[C@H](C2)N(C)CC3 (stereo partly shown)"
numeric_result = 1.58

[[record]]
compound = "COCc1c2c3c(c(OC)c1OC)Oc1cc4c(cc1OC)CCN(C)[C@H]4Cc1ccc(cc1)Oc1cc(ccc1OC)C[C@@H]3N(C)CC2"
numeric_result = 7.68

[[record]]
compound = "CCN1CCN(Cc2c3c4c(c(OC)c2OC)Oc2cc5c(cc2OC)CCN(C)[C@H]5Cc2ccc(cc2)Oc2cc(ccc2OC)C[C@@H]4N(C)CC3)CC1"
numeric_result = 2.32

[[record]]
compound = "COc1ccc2cc1Oc1ccc(cc1)C[C@H]1c3cc(c(OC)cc3CCN1C)Oc1c(OC)c(OC)c(Cn3cccn3)c3c1[C@H](C2)N(C)CC3"
numeric_result = 4.03


[a] COc1ccc2cc1Oc1ccc(cc1)C[C@H]1c3cc(c(OC)cc3CCN1C)Oc1c(OC)c(OC)c(CN3CCCC(O)C3)c3c1[C@H](C2)N(C)CC3 (stereo partly shown)
[b] COc1ccc2cc1Oc1ccc(cc1)C[C@H]1c3cc(c(OC)cc3CCN1C)Oc1c(OC)c(OC)c(CN3CCC(O)CC3)c3c1[C@H](C2)N(C)CC3
[c] COc1ccc2cc1Oc1ccc(cc1)C[C@H]1c3cc(c(OC)cc3CCN1C)Oc1c(OC)c(OC)c(COC(=O)c3cccs3)c3c1[C@H](C2)N(C)CC3
[d] COc1ccc2cc1Oc1ccc(cc1)C[C@H]1c3cc(c(OC)cc3CCN1C)Oc1c(OC)c(OC)c(CN(C)C)c3c1[C@H](C2)N(C)CC3
Put the items in sequence by IC90, from largest down. Return the labels ranked in the requested order, please.
d, c, b, a

[A] COc1ccc2cc1Oc1ccc(cc1)C[C@H]1c3cc(c(OC)cc3CCN1C)Oc1c(OC)c(OC)c(COC(=O)c3ccc(N(C)C)cc3)c3c1[C@H](C2)N(C)CC3
[B] COc1ccc2cc1Oc1ccc(cc1)C[C@H]1c3cc(c(OC)cc3CCN1C)Oc1c(OC)c(OC)c(CNC(C)C)c3c1[C@H](C2)N(C)CC3
[C] COc1ccc2cc1Oc1ccc(cc1)C[C@H]1c3cc(c(OC)cc3CCN1C)Oc1c(OC)c(OC)c(CNCc3ccc(C)o3)c3c1[C@H](C2)N(C)CC3
Task for the reader: rank each entry by its IC90, from the minimum upward. Return the labels ranked in the requested order, please.
C, B, A
(C: 2.4 µg/mL, B: 3.99 µg/mL, A: 5.84 µg/mL)
